Each record here notes measured pIC50.
Test system: CD69 expression on CD19+ B cells in human whole blood
Test: In Vitro whole blood CD69 Assay
Assay type: cell-based
Settings: B-cell; human heparinized whole blood, anti-human IgD stimulation overnight, CD19+ B cells, flow cytometry; read-out: In Vitro HWB CD69 Assay IC50 Score
pIC50: −log10 of the molar value.

In the examples that follow, each entry is paired with its recorded pIC50.
- Cn1cc(-c2cn3nccc3c(-c3ccc(CNC(=O)c4noc(C(C)(C)C)n4)c(F)c3)n2)cn1: > 6.00
- Cc1c(CNC(=O)c2noc(C(C)(C)C)n2)ccc(-c2nc(-c3cnn(C)c3)cc3nccn23)c1F: > 6.00
- Cn1cc(-c2cn3nccc3c(N3CCC(C)(CNC(=O)c4noc(C5(C)CC5)n4)CC3)n2)cn1: 5.00 to 6.00
- CN1CCN(c2cn3nccc3c(-c3ccc(CNC(=O)c4nc(C(C)(C)C)no4)c(F)c3)n2)CC1: 5.00 to 6.00

Cn1cc(-c2cc3nccn3c(-c3ccc(CNC(=O)c4nnc(C(C)(C)C)o4)cc3)n2)cn1 tested on CD69 expression on CD19+ B cells in human whole blood gave pIC50: 5.00 to 6.00

Cn1cc(-c2cc(-c3ccc(CNC(=O)c4ccn(C(C)(C)C)n4)c(F)c3)c3ccnn3c2)cn1 tested on CD69 expression on CD19+ B cells in human whole blood gave pIC50: 5.00 to 6.00

Cn1cc(-c2cn3nccc3c(-c3ccc(CNC(=O)c4nc(C(C)(C)CF)no4)c(F)c3)n2)cn1 tested on CD69 expression on CD19+ B cells in human whole blood gave pIC50: > 6.00

Cn1cc(-c2cn3nccc3c(-c3ccc(CNC(=O)c4cn(C(C)(C)C)nn4)c(F)c3F)n2)cn1 tested on CD69 expression on CD19+ B cells in human whole blood gave pIC50: > 6.00

Cn1cc(-c2cn3nccc3c(-c3ccc(CNC(=O)c4noc(C5(C)CC5)n4)c(F)c3)n2)cn1 tested on CD69 expression on CD19+ B cells in human whole blood gave pIC50: > 6.00

Cn1cc(-c2cn3nccc3c(N3CC[C@H](CNC(=O)c4noc(C(C)(C)C)n4)[C@H](F)C3)n2)cn1 (single isomer, unassigned) tested on CD69 expression on CD19+ B cells in human whole blood gave pIC50: 5.00 to 6.00

Cn1cc(-c2cn3nccc3c(-c3ccc(CNC(=O)c4cnn(C(C)(C)C)c4)c(C(F)F)c3)n2)cn1 tested on CD69 expression on CD19+ B cells in human whole blood gave pIC50: > 6.00

Cn1cc(-c2cc3nccn3c(-c3ccc(CNC(=O)c4nc(C(C)(C)C)no4)cc3)n2)cn1 tested on CD69 expression on CD19+ B cells in human whole blood gave pIC50: > 6.00

Cc1cc(-c2nc(-c3cnn(C)c3)cn3nccc23)ccc1CNC(=O)c1noc(C(C)(C)C)n1 tested on CD69 expression on CD19+ B cells in human whole blood gave pIC50: > 6.00

Cn1cc(-c2cn3nccc3c(-c3ccc(CNC(=O)c4cn(C(C)(C)C)nn4)cc3F)n2)cn1 tested on CD69 expression on CD19+ B cells in human whole blood gave pIC50: 5.00 to 6.00

Cn1cc(-c2cn3nccc3c(-c3ccc(CNC(=O)c4cnn(C(C)(C)C)n4)c(C(F)F)c3)n2)cn1 tested on CD69 expression on CD19+ B cells in human whole blood gave pIC50: 5.00 to 6.00

Cn1cc(-c2cn3nccc3c(N3CCC(C)(CNC(=O)c4cnc(C(C)(C)C)o4)CC3)n2)cn1 tested on CD69 expression on CD19+ B cells in human whole blood gave pIC50: 5.00 to 6.00

====

Test system: CD69 expression on CD19+ B cells in human whole blood
Assay: In Vitro whole blood CD69 Assay
Format: cell-based
Conditions: B-cell; human heparinized whole blood, anti-human IgD stimulation overnight, CD19+ B cells, flow cytometry; read-out: In Vitro HWB CD69 Assay IC50 Score
pIC50: −log10 of the molar value.
Each record here notes measured pIC50.

• Cn1cc(-c2cn3nccc3c(-c3ccc4c(c3)CN(CC(F)(F)F)CC[C@H]4NC(=O)c3cn(C(C)(C)C)nn3)n2)cn1 = > 6.00

response.value for Cn1cc(-c2cn3nccc3c(-c3ccc(CNC(=O)c4nc(C(C)(C)C)no4)c(C(F)F)c3)n2)cn1 (field: pIC50) = > 6.00

response.value for Cc1cc(-c2nc(-c3cnn(C)c3)cn3nccc23)ccc1CNC(=O)c1cnn(C(C)(C)C)c1 (field: pIC50) = > 6.00

====

Where a name gives a salt, the structure may show the parent alone.
Measurement record for UniProt:Q06187; quantity recorded: IC50.
Sequence (Q06187 whole entry): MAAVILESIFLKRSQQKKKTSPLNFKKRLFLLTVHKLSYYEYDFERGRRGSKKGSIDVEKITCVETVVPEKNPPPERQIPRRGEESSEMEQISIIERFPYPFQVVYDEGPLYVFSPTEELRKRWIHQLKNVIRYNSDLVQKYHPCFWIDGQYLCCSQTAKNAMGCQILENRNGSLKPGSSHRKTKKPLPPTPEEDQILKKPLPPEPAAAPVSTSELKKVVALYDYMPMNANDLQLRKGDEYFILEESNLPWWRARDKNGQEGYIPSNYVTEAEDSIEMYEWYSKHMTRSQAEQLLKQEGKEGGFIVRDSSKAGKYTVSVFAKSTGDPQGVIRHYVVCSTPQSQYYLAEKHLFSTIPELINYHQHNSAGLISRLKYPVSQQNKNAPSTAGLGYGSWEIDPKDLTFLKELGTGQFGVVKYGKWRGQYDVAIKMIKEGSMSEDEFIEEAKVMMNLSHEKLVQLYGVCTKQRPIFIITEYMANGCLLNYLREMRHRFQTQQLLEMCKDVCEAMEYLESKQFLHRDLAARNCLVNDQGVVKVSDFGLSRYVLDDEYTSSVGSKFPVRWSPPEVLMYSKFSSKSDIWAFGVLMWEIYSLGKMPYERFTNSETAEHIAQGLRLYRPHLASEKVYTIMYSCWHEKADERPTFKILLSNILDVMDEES

- Cn1cc(-c2cn3nccc3c(N3CCC(C)(CNC(=O)c4noc(C(C)(C)C)n4)CC3)n2)cn1 [Example 41]: 1 to 10 nM
- Cn1cc(-c2cn3nccc3c(-c3ccc(CNC(=O)c4nc(C(C)(C)C)co4)cc3F)n2)cn1 [Example 110]: 1 to 10 nM

response.value for Cn1cc(-c2cn3nccc3c(N3CCC(F)(CNC(=O)c4noc(C5(C)CC5)n4)CC3)n2)cn1 [Example 161, trifluoroacetate] (field: IC50) = 1 to 10 nM

====

Test system: CD69 expression on CD19+ B cells in human whole blood
Experiment: In Vitro whole blood CD69 Assay
Type: cell-based
Details: B-cell; human heparinized whole blood, anti-human IgD stimulation overnight, CD19+ B cells, flow cytometry; read-out: In Vitro HWB CD69 Assay IC50 Score
measured_property: IC50

In the examples that follow, each entry is paired with its recorded IC50.
* Cn1cc(-c2cn3nccc3c(-c3cc(F)c(CNC(=O)c4coc(C(C)(C)C)n4)cc3F)n2)cn1 | 1000 to 10000 nM
* Cn1cc(-c2cn3nccc3c(-c3ccc(CNC(=O)c4nc(C(C)(C)C)co4)cc3F)n2)cn1 | 1000 to 10000 nM
* Cn1cc(-c2cn3nccc3c(N3CCC(C)(CNC(=O)c4cn(C(C)(C)C)nn4)CC3)n2)cn1 | 1000 to 10000 nM
* Cc1cc(-c2nc(N3CCOCC3)cn3nccc23)ccc1CNC(=O)c1cn(C(C)(C)C)nn1 | 1000 to 10000 nM
* COCCOc1cn2nccc2c(-c2ccc(CNC(=O)c3cn(C(C)(C)C)nn3)c(C)c2)n1 | < 1000 nM

Consider the record given below.
response.value for C[C@H]1CN(c2nc(-c3cnn(C)c3)cn3nccc23)CC[C@@H]1CNC(=O)c1noc(C2(C)CC2)n1 (single isomer, unassigned) (field: IC50) = 1000 to 10000 nM

====

System: CD69 expression on CD19+ B cells in human whole blood
Test: In Vitro whole blood CD69 Assay
Assay type: cell-based
Details: B-cell; human heparinized whole blood, anti-human IgD stimulation overnight, CD19+ B cells, flow cytometry; read-out: In Vitro HWB CD69 Assay IC50 Score
Description: Human heparinized venous blood from health donors was aliquoted into 96-well plate and “spiked” with serial dilutions of formula I compounds in DMSO or with DMSO without drug. The final concentration of DMSO in all wells was 0.1%. The plate was incubated at 37° C. for 30 min. […] Lyse/fix solution was used to remove red blood cells by hypotonic lysis and to fix the remaining cells, which were then analyzed by flow cytometry. CD19+ B cells were gated and analyzed for CD69 expression.
measured_property: IC50

In the examples that follow, each entry is paired with its recorded IC50.
• Cn1cc(-c2cn3nccc3c(-c3ccc(CNC(=O)c4nnc(C(C)(C)C)o4)c(C(F)F)c3)n2)cn1 = < 1 µM
• Cn1cc(-c2cn3nccc3c(-c3ccc(CNC(=O)c4coc(C(C)(C)C)n4)c(C(F)F)c3)n2)cn1 = 1 to 10 µM
• Cn1cc(-c2cc3nccn3c(-c3ccc(CNC(=O)c4ccn(C(C)(C)C)n4)cc3)n2)cn1 = 1 to 10 µM

Consider the record given below.
response.value for Cn1cc(-c2cn3nccc3c(-c3ccc(CN4CCN(CC(C)(C)C)CC4=O)cc3)n2)cn1 (field: IC50) = 1 to 10 µM
